Test system: BT-549 breast
assayDetails: NCI tumour cell line growth inhibition, 48 h
valueKind: log10(TGI) (log10 of the value in µM)
Heads up, the numbers here are log10 of TGI in µM units.

Prompt: Look up log10(TGI) for this compound: CCN(CC)CCO/N=C1/C=C2CCC3C(CC[C@@]4(C)C3CC[C@]4(C)O)[C@@]2(C)CC1 (some centres undefined)
Response: 1.59

Prompt: Let us now turn to O=C1NCCS(=O)(=O)/C1=C\C=C\c1cccc(C(F)(F)F)c1
Response: 0.93

Prompt: Let us now turn to CC(=O)O[C@@H](C1C[C@@H](C)[C@H]2[C@@](O)(O1)[C@H](O)[C@@]1(C)C3=CC[C@H]4C(C)(C)[C@@H](OC5OCC(O)C(O)C5O)CC[C@@]45C[C@@]35CC[C@]21C)C(C)(C)O (some centres undefined)
Response: 1.91

Prompt: Let us now turn to ClCc1ccc(Cn2cnc3c(Cl)nc(Cl)nc32)cc1
Response: 1.47

Prompt: Let us now turn to N#Cc1cc(S(=O)(=O)Nc2nc3ccccc3s2)c(SCc2ccccc2)cc1Cl
Response: 1.69

Prompt: Let us now turn to CC(C)(C)OC(=O)N(CCCCNCc1ccc2ccccc2c1)CCCNCc1ccc2ccccc2c1
Response: 0.51
